These data points were gathered from paper PMC9839475.

# experiment.description: Cohort 1 intensive PK after a single 100 mg doravirine tablet
# Set-up: species or system adolescents with HIV-1
# protocol.conditions: human, in vivo, po

# smiles.string, AUC(0-inf)
data = [
    ("Cn1c(Cn2ccc(C(F)(F)F)c(Oc3cc(Cl)cc(C#N)c3)c2=O)n[nH]c1=O", "34.8 µM·h"),
]

----------
# experiment.description: Cohort 1 intensive PK after a single 100 mg doravirine tablet
# Parameters: species or system adolescents with HIV-1
# protocol.conditions: human, in vivo, po

# smiles.string, half-life, h
measured = [
    ("Cn1c(Cn2ccc(C(F)(F)F)c(Oc3cc(Cl)cc(C#N)c3)c2=O)n[nH]c1=O", 11.8),
]
